# Tested on: Apolipoprotein B Secretion from HepG2 Cells
# measurement.notes: Inhibition of Apolipoprotein B secretion from HepG2 cells (ELISA)
# Format: cell-based, human
# reported.conditions: Homo sapiens, HepG2, HepG2 cells, 22-24 hours incubation, ApoB ELISA; Low/High IC50 columns give the 95% confidence interval
reported.metric: IC50 (nM)

Here's what some known entries look like.
Prompt: Note IC50 for the compound shown: CCOC(=O)C1(COC(=O)Cc2ccc(NC(=O)c3ccccc3-c3ccc(C(F)(F)F)cc3)c(C(=O)N(C)C)c2)CCCc2ccccc21 (single isomer, unassigned; (-)) [Example 45]
Response: 1.63

Prompt: Note IC50 for the compound shown: CCOC(=O)[C@]1(COC(=O)Cc2ccc(NC(=O)c3ccccc3-c3ccccc3)c(C(=O)N(C)C)c2)c2ccccc2C(=O)N1C
Response: 1.28

Prompt: Note IC50 for the compound shown: CCOC(=O)C1(COC(=O)Cc2ccc(NC(=O)c3cccc(C)c3-c3ccc(C(F)(F)F)cc3)c(C(=O)N(C)C)c2)c2ncccc2C(=O)N1CC (racemic)
Response: 0.328

Prompt: Note IC50 for the compound shown: CCOC(=O)[C@]1(COC(=O)Cc2ccc(NC(=O)c3ccccc3-c3ccc(C(F)(F)F)cc3)c(C(=O)N(C)C)c2)c2ccccc2C(=O)N1C
Response: 0.495

Prompt: Note IC50 for the compound shown: CCOC(=O)[C@]1(COC(=O)Cc2ccc(NC(=O)c3ccc(C)cc3-c3ccc(OC(C)C)cc3)c(C(=O)N(C)C)c2)c2ccccc2C(=O)N1C
Response: 0.119

Prompt: Note IC50 for the compound shown: CCOC(=O)C1(COC(=O)Cc2ccc(NC(=O)c3ccccc3-c3ccc(C(F)(F)F)cc3)cc2)c2ccccc2C(=O)N1C (centres unmarked)
Response: 23.9

a: CCOC(=O)C1(COC(=O)Cc2ccc(NC(=O)c3ccccc3-c3ccc(C(F)(F)F)cc3)c(C(=O)N(C)C)c2)c2ccccc2C(=O)N1CC (racemic)
b: CCOC(=O)C1(COC(=O)Cc2ccc(NC(=O)c3ccccc3-c3ccc(C(F)(F)F)cc3)c(C)c2)OC(=O)c2ccccc21 (centres unmarked)
Prompt: Given the listed records, identify the one among a and b with higher IC50. Lab log: write the label of the selected item as the result.
Response: b
(b: 159 nM, a: 1.45 nM)

1: CCOC(=O)C1(COC(=O)Cc2ccc(NC(=O)c3ccccc3-c3ccc(C(F)(F)F)cc3)c(C(=O)N(C)C)c2)c2ccccc2C(=O)N1C(C)C (racemic)
2: CCOC(=O)C1(COC(=O)Cc2ccc(NC(=O)c3ccc(C)cc3-c3ccc(C(F)(F)F)cc3)c(C(=O)N(C)C)c2)c2ccccc2C(=O)N1C (single isomer, unassigned)
Prompt: Record comparison, field IC50: mark the lower of 1 and 2 . Lab log: write the label of the selected item as the result.
Response: 2

###

# System: Apolipoprotein B Secretion from HepG2 Cells
# measurement.notes: Inhibition of Apolipoprotein B secretion from HepG2 cells (ELISA)
# Format: cell-based, human
# reported.conditions: Homo sapiens, HepG2, HepG2 cells, 22-24 hours incubation, ApoB ELISA; Low/High IC50 columns give the 95% confidence interval
reported.metric: IC50 (nM)

Here's what some known entries look like.
Prompt: For Apolipoprotein B Secretion from HepG2 Cells, give the measured IC50 of the entry CCOC(=O)[C@]1(COC(=O)Cc2ccc(NC(=O)c3cccc(C)c3-c3ccc(C(F)(F)F)cc3)c(C(=O)N3CCCCC3)c2)c2ccccc2C(=O)N1C
Response: 1.17

Prompt: For Apolipoprotein B Secretion from HepG2 Cells, give the measured IC50 of the entry CCOC(=O)[C@]1(COC(=O)Cc2ccc(NC(=O)c3ccc(OC)cc3-c3ccc(C(F)(F)F)cc3)c(C(=O)N(C)C)c2)c2ccccc2C(=O)N1C
Response: 0.414

Prompt: For Apolipoprotein B Secretion from HepG2 Cells, give the measured IC50 of the entry CCOC(=O)C1(COC(=O)Cc2ccc(NC(=O)c3ccccc3-c3ccc(C(F)(F)F)cc3)c(C)c2)c2ccccc2C(=O)N1C (stereo not shown)
Response: 3.07

I: CCOC(=O)C1(COC(=O)Cc2ccc(NC(=O)c3ccc(C(F)(F)F)cc3-c3ccc(C(F)(F)F)cc3)c(C(=O)N(C)C)c2)CCc2cccnc21 (stereo not shown)
II: CCOC(=O)C1(COC(=O)Cc2ccc(NC(=O)c3ccc(C(F)(F)F)cc3-c3ccc(C(F)(F)F)cc3)c(C(=O)N(C)C)c2)c2ccccc2C(=O)N1C (stereo not shown)
III: CCOC(=O)C1(COC(=O)Cc2ccc(NC(=O)c3ccccc3-c3ccc(C(F)(F)F)cc3)c(Cl)c2)c2ccccc2C(=O)N1C (stereo not shown)
IV: CCOC(=O)C1(COC(=O)Cc2ccc(NC(=O)c3ccccc3-c3ccc(C(F)(F)F)cc3)c(C(=O)N(C)C)c2)c2ccccc2C(=O)N1C (racemic) [Example 4]
Prompt: Ascending by IC50, please. Order the labels as requested and list them.
Response: II, IV, III, I
